All values here come from PubChem BioAssay.

Target: Short transient receptor potential channel 4 (Mus musculus) (UniProt Q9QUQ5)
Sequence (Q9QUQ5 whole entry, looked up): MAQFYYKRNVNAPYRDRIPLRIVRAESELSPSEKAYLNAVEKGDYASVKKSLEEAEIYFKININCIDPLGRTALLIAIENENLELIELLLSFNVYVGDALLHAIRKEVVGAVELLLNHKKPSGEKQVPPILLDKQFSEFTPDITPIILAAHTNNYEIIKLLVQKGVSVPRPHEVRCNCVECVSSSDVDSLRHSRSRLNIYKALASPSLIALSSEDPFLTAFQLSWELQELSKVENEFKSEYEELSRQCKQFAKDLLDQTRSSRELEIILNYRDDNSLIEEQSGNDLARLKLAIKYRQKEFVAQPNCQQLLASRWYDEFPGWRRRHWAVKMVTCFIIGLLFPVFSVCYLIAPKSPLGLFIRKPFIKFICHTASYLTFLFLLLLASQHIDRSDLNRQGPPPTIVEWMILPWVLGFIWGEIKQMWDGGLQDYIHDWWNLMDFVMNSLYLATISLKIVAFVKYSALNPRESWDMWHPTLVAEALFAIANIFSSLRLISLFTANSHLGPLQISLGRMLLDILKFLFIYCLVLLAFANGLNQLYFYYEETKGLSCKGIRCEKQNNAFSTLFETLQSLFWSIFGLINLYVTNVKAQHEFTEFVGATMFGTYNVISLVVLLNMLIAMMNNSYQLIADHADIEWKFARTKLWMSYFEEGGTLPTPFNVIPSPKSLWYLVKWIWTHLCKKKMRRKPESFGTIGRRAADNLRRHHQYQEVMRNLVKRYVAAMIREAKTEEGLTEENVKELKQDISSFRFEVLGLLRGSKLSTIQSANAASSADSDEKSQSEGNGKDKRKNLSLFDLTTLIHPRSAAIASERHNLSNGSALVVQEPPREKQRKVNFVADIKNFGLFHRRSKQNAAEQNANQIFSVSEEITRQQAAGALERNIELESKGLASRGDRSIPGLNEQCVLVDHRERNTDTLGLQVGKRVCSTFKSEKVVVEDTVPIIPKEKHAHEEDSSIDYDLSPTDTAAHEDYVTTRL
Test: blockers of DAMGO-evoked TRPC4 calcium flux – cell-based, Fluo4, HEK293 TRPC4beta/mu-opioid, confirmation (AID 2636)
Conditions: at 10 µM
Active and inactive are the calls of the source.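 How the source made its calls: active means calcium signal cut by more than 3 SD below the full-agonist control yet still positive, in both repeats and the earlier primary screen; inactive means the rest.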
Outcomes: active, inactive

>>> df
                                    compound  discrete_label
 0         Cc1ccc(Nc2c(N)c(=O)oc3ccccc23)cc1        inactive
 1  Cc1ccc(/C=C2\SC(=S)N(C(Cc3ccccc3)C(=O)O)C2=O)cc1 (stereo unspecified)        inactive
 2  COc1cc(/C=C2\SC(N3CCC(C)CC3)=NC2=O)ccc1O          active
 3    COc1ccc(OC)c(Nc2c3c(nc4ccccc24)CCC3)c1          active
 4  Cc1ccc(NC(=O)CNCC(c2ccccc2)N(C)C)cc1F (stereo unspecified)        inactive
 5  CC(=O)c1cccc(Nc2cc(C)nc3c(C)cc(C)cc23)c1        inactive
 6  CN(CC(=O)NC1CCCc2ccccc21)C1CCCCC1 (stereo unspecified)          active
 7  Cc1ccn2c(CNCCCn3cccn3)c(C(=O)N3CCCCCC3)nc2c1          active
 8    c1ccc(CN2CCN(Cc3c[nH]c4ccccc34)CC2)cc1          active
 9    Cc1ccn2c(-c3csc(NCc4ccco4)n3)c(C)nc2c1          active
10  Cc1ccc(OCC(=O)NNC(=S)NC(=O)c2ccc(Br)o2)c(C)c1          active
11    CSCCNCc1cn(-c2ccc(F)cc2F)nc1-c1ccccc1C          active
12  Cc1ccc(-c2csc(N(CCCN(C)C)C(=O)c3ccco3)n2)cc1        inactive
13  Cc1ccc2[nH]c(C)c(CCN(Cc3cccnc3)C(=S)NC(C)(C)C)c2c1        inactive
14                   NC(N)=NN=C1CCCCCCCCCCC1        inactive
15               O=Cc1cc(N=Nc2ccccc2Cl)ccc1O          active
16  Cc1cc2cc(CN(Cc3cccs3)C(=S)NCc3ccco3)c(=O)[nH]c2cc1C        inactive
17  O=C(Nc1nc(N2C(=O)c3ccccc3C2=O)n(-c2ccccc2)n1)c1ccc(Cl)cc1        inactive
18  COc1ccc(C(CNC(=O)c2ccccc2SC)N(C)C)cc1 (stereo unspecified)        inactive
19   O=C(CCN1CCN(Cc2ccccc2)CC1)Nc1cccc(Br)c1        inactive
20  O=C(NC1CC1)c1ccc2c(c1)N(Cc1ccc(Cl)cc1)CCS2        inactive
21  Cc1cccn2c(CNCCc3ccccn3)c(C(=O)N3CCOCC3)nc12        inactive
22            Oc1ccccc1-c1cc(-c2ccco2)[nH]n1        inactive
23  C=CCOc1ccc(CN(C)Cc2nc3cc(C(F)(F)F)ccc3c(=O)[nH]2)cc1        inactive
24  COc1ccccc1N1CCN(CC(C)N(C(=O)C2CCCCC2)c2ccccn2)CC1 (stereo unspecified)          active
25            COc1ccccc1OCC(=O)Nc1ccc(Cl)cc1          active
